Overview of recorded GI50 for various compounds
# Study target: Ba/F3 cells, ABL1 T315I (Homo sapiens, UniProt P00519, T315I, cells depend on it)
# Method: 96-well XTT cell survival assay, Ba/F3 ABL1 T315I
# Type: cell-based
# Measurement conditions: 72 hours, read-out: ABL1 T315I XTT [Ba/F3] IC50
Assay metric: GI50

- CC(=O)c1ccccc1-c1c[nH]c2ncc(-c3cncc(C(O)C(=O)N(C)C)c3)cc12 (stereo not drawn): > 1000 nM
- CN(C)C(=O)C(O)c1cncc(-c2cnc3[nH]cc(-c4cccc(S(C)(=O)=O)c4)c3c2)c1 (stereo not drawn): > 1000 nM
- COc1ccccc1-c1c[nH]c2ncc(-c3cccc(C(O)C(=O)N(C)C[C@@H](O)CO)c3)cc12 (stereo partly drawn): < 1000 nM
- CCc1ccccc1-c1c[nH]c2ncc(-c3cncc(C(O)C(=O)N(C)C)c3)cc12 (stereo not drawn): < 1000 nM
- COc1ccccc1-c1n[nH]c2ncc(-c3cccc(C(=O)C(=O)N(C)CCN(C)C)c3)cc12: < 1000 nM
- CN(C)C(=O)C(O)c1cncc(-c2cnc3[nH]cc(-c4ccc(Cl)c(Cl)c4)c3c2)c1 (stereo not drawn): > 1000 nM
- CC[C@H](O)[C@@H](O)c1cccc(-c2cnc3[nH]cc(-c4ccccc4OC)c3c2)c1: < 1000 nM
- COc1ccccc1-c1n[nH]c2ncc(-c3cncc(C(O)C(=O)N(C)C)c3)cc12 (stereo not drawn): < 1000 nM
- COC(=O)C1=C(C)NC(=O)NC1c1cccc(-c2cnc3[nH]cc(-c4ccccc4OC)c3c2)c1 (stereo not drawn): > 1000 nM
- COc1ccccc1-c1n[nH]c2ncc(-c3cccc(C(O)c4ncco4)c3)cc12 (stereo not drawn): > 1000 nM
- CN(C)C(=O)C(O)c1cncc(-c2cnc3[nH]cc(-c4cccc(F)c4F)c3c2)c1 (stereo not drawn): < 1000 nM
- COc1ccccc1-c1c[nH]c2ncc(-c3cccc(C(O)C(=O)N(C)C4CCOCC4)c3)cc12 (stereo not drawn): < 1000 nM
- CC[C@@H]1OCO[C@H]1c1cccc(-c2cnc3[nH]nc(-c4ccccc4OC)c3c2)c1: > 1000 nM
- COc1ccccc1-c1n[nH]c2ncc(-c3cccc(C(O)C(=O)N(C)Cc4ccco4)c3)cc12 (stereo not drawn): > 1000 nM
- CN(C)C(=O)C(O)c1cncc(-c2cnc3[nH]cc(-c4cccnc4)c3c2)c1 (stereo not drawn): > 1000 nM
- COc1ccccc1-c1c[nH]c2ncc(-c3cccc(C(O)C(=O)N(C)CCNC4CC4)c3)cc12 (stereo not drawn): < 1000 nM
- COc1ccccc1-c1n[nH]c2ncc(-c3cccc(C(O)c4ccccn4)c3)cc12 (stereo not drawn): > 1000 nM
- COc1ccccc1-c1c[nH]c2ncc(-c3cccc(C(C(=O)N4CCC[C@@H]4CO)N4CCNCC4)c3)cc12 (stereo partly drawn): > 1000 nM
